Hello, the source for this data is patent US8916570B2, in case you need it.

# EXPERIMENTAL_SYSTEM: mouse A2A adenosine receptor (Mus musculus)
# Sequence (Q60613 whole entry): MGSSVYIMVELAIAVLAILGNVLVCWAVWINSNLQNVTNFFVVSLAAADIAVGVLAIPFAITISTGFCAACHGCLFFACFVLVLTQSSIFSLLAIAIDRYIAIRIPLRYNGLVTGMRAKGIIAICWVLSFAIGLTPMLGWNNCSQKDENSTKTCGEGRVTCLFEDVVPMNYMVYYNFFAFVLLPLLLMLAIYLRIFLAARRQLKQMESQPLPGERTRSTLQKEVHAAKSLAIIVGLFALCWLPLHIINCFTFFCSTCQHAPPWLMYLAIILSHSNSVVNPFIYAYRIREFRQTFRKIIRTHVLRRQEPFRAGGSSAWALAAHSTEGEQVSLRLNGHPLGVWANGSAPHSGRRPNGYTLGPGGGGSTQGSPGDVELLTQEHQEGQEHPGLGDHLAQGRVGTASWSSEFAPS
# ASSAY_DETAILS: Competition radioligand binding, mouse A2A AR, HEK293 membranes (Table 1)
# CONDITION_LABEL: read-out: A2A Ki; species M (mouse); [3H]CGS21680
pKi: −log10 of the molar value.
RECORDED_METRIC: pKi

| COMPOUND | EXPERIMENTAL_SYSTEM | MEASURED |
| --- | --- | --- |
| CNC(=O)[C@@]12C[C@@H]1[C@@H](n1cnc3c(NCc4cccc(Br)c4)nc(Cl)nc31)[C@H](O)[C@@H]2O [Compound 14] | mouse A2A adenosine receptor (Mus musculus) | 5.19 |
| CNC(=O)[C@@]12C[C@@H]1[C@@H](n1cnc3c(NCc4cc(OC)ccc4OC)nc(Cl)nc31)[C@H](O)[C@@H]2O [Compound 17] | mouse A2A adenosine receptor (Mus musculus) | 4.35 |
| CNC(=O)[C@@]12C[C@@H]1[C@@H](n1cnc3c(NCc4cccc(Cl)c4)nc(Cl)nc31)[C@H](O)[C@@H]2O [Compound 13] | mouse A2A adenosine receptor (Mus musculus) | 4.98 |
| CNC(=O)[C@@]12C[C@@H]1[C@@H](n1cnc3c(NCc4cccc(I)c4)nc(Cl)nc31)[C@H](O)[C@@H]2O [Compound 15] | mouse A2A adenosine receptor (Mus musculus) | 5.27 |

* * *

# EXPERIMENTAL_SYSTEM: mA1AR (Mus musculus, UniProt Q60612)
# Construct: expressed in transfected cells
# Sequence (Q60612 whole entry): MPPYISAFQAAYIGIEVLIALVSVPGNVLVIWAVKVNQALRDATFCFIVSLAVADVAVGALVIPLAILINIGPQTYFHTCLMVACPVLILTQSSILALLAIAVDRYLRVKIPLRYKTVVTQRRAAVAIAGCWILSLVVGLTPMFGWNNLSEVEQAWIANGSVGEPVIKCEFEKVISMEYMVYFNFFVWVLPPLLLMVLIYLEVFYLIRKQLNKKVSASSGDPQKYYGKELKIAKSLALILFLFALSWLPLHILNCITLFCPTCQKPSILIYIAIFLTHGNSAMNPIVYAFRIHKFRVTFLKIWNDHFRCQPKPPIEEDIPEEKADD
# ASSAY_DETAILS: Competition binding at mA1AR, HEK293 membranes (Example 8)
# CONDITION_LABEL: percent in parentheses, concentration not given

| COMPOUND | % inhibition mA1 |
| --- | --- |
| CNC(=O)[C@@]12C[C@@H]1[C@@H](n1cnc3c(NC)nc(C#Cc4ccccc4Cl)nc31)[C@H](O)[C@@H]2O [Compound 314] | (45%) |
| CNC(=O)[C@@]12C[C@@H]1[C@@H](n1cnc3c(NCc4cccc(Cl)c4)nc(C#Cc4ccc(-c5ccccc5)cc4)nc31)[C@H](O)[C@@H]2O [Compound 335] | (28%) |
| CNC(=O)[C@@]12C[C@@H]1[C@@H](n1cnc3c(NCc4cccc(Cl)c4)nc(C#Cc4ccccc4Cl)nc31)[C@H](O)[C@@H]2O [Compound 329] | (36%) |
| CNC(=O)[C@@]12C[C@@H]1[C@@H](n1cnc3c(NCc4cccc(Cl)c4)nc(C#Cc4ccccc4)nc31)[C@H](O)[C@@H]2O [Compound 327] | (41%) |
| CNC(=O)[C@@]12C[C@@H]1[C@@H](n1cnc3c(NC)nc(C#Cc4ccc(F)cc4)nc31)[C@H](O)[C@@H]2O [Compound 313] | (25%) |
| CNC(=O)[C@@]12C[C@@H]1[C@@H](n1cnc3c(NCc4cccc(Cl)c4)nc(C#Cc4ccc(F)cc4)nc31)[C@H](O)[C@@H]2O [Compound 328] | (39%) |
| CNC(=O)[C@@]12C[C@@H]1[C@@H](n1cnc3c(NCc4cccc(Cl)c4)nc(C#Cc4ccc(N)cc4)nc31)[C@H](O)[C@@H]2O [Compound 332a] | (93%) |

* * *

# EXPERIMENTAL_SYSTEM: human A1 adenosine receptor (Homo sapiens)
# Sequence (P30542 1-326): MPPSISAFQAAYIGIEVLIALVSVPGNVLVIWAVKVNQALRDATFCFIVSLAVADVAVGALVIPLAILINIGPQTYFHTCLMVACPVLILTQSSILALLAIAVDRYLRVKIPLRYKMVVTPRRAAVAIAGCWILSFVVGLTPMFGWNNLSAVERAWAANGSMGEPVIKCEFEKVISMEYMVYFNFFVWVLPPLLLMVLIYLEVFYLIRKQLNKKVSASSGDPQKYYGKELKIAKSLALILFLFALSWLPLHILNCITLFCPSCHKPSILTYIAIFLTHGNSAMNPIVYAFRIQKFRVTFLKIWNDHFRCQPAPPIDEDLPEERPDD
# ASSAY_DETAILS: Radioligand binding, human A1 AR, CHO membranes (Table 1)
Threshold check on Ki: strictly below 0.3 µM is Met; on or above 0.3 µM is Not met.

| COMPOUND | EXPERIMENTAL_SYSTEM | CLASS |
| --- | --- | --- |
| CNC(=O)C12CC1C(n1cnc3c(NCc4cccc(C#CCCCC(=O)NCCN)c4)nc(Cl)nc31)C(O)C2O (stereo not shown) [Compound 10] | human A1 adenosine receptor (Homo sapiens) | Met |
| CNC(=O)C12CC1C(n1cnc3c(NC4CCCC4)nc(Cl)nc31)C(O)C2O (stereo not shown) [Compound 32] | human A1 adenosine receptor (Homo sapiens) | Met |
| CNC(=O)C12CC1C(n1cnc3c(NCc4cccc(Cl)c4)nc(C#C[Si](C)(C)C)nc31)C(O)C2O (stereo not shown) [Compound 4] | human A1 adenosine receptor (Homo sapiens) | Met |
| CNC(=O)C12CC1C(n1cnc3c(NOC)nc(Cl)nc31)C(O)C2O (stereo not shown) [Compound 21] | human A1 adenosine receptor (Homo sapiens) | Met |
| CNC(=O)C12CC1C(n1cnc3c(NCc4cccc(Cl)c4)nc(C#CCCCC(=O)NCCN)nc31)C(O)C2O (stereo not shown) [Compound 8] | human A1 adenosine receptor (Homo sapiens) | Not met |
| CNC(=O)C12CC1C(n1cnc3c(NCc4cccc(Cl)c4)nc(SC)nc31)C(O)C2O (stereo not shown) [Compound 20] | human A1 adenosine receptor (Homo sapiens) | Not met |
| CNC(=O)C12CC1C(n1cnc3c(NCc4cccc(Cl)c4)nc(C#CCCCC(=O)OC)nc31)C(O)C2O (stereo not shown) [Compound 6] | human A1 adenosine receptor (Homo sapiens) | Not met |
